# experiment summary: Evaluation of stability in liver microsome
# run conditions: mouse liver microsome 0.25 mg/mL, test compound 1 μM, 37° C., 30 minutes
Remaining (%) of 60% or higher: YES. Under 60%: NO.

Use the examples below as a reference point.
COCc1ccc(NC(=O)c2c(Cl)n(C3(C)CC3)c3ncnc(N)c23)cc1 ... YES
COCc1ccc(NC(=O)c2c(OC[C@@H]3CCCO3)n(C3(C)CC3)c3ncnc(N)c23)cc1 ... YES
COCc1ccc(NC(=O)c2c(C#Cc3ccc[nH]3)n(C3(C)CC3)c3ncnc(N)c23)cc1 ... YES
COCc1ccc(NC(=O)c2cn(C3(CF)CC3)c3ncnc(N)c23)cc1 ... YES

Inquiry: Does the compound COCc1ccc(NC(=O)c2c(C#CCCN3CCOCC3)n(C3(C)CC3)c3ncnc(N)c23)cc1 have recorded Remaining (%) that is 60% or more?
Reply text: YES

Inquiry: Also check COCc1ccc(NC(=O)c2c(C#CCC3NC(=O)NC3=O)n(C3(C)CC3)c3ncnc(N)c23)cc1 (stereo not shown)
Reply text: YES

Inquiry: And CCOc1c(C(=O)Nc2ccc(-c3ccco3)cc2)c2c(N)ncnc2n1C1(C)CC1 ?
Reply text: NO

Inquiry: Then COCc1ccc(NC(=O)c2cn(C(C)(C)CF)c3ncnc(N)c23)cc1F ?
Reply text: NO

Inquiry: How about COCc1ccc(NC(=O)c2c(C3=CCOCC3)n(C3(C)CC3)c3ncnc(N)c23)cc1 ?
Reply text: YES

---

# experiment summary: Evaluation of stability in liver microsome
# run conditions: mouse liver microsome 0.25 mg/mL, test compound 1 μM, 37° C., 30 minutes
measured attribute: Remaining (%)
One number for each entry, in %.

COCc1ccc(NC(=O)c2c(-c3cncnc3)n(C3(C)CC3)c3ncnc(N)c23)cc1 [Example 194] ... 67

Look up Remaining (%) for the entries below, preserving their order.
1. COCc1ccc(NC(=O)c2c(C#CC3(O)CCOCC3)n(C3(C)CC3)c3ncnc(N)c23)cc1 [Example 185]
2. COCc1ccc(NC(=O)c2c(C#CC3CCOCC3)n(C3(C)CC3)c3ncnc(N)c23)cc1F [Example 205]

Reply text:
1. 80
2. 58

Inquiry: Could you share which Remaining (%) value was measured for COCc1ccc(NC(=O)c2c(C#CC3CCOCC3)n(C3(C)CC3)c3ncnc(N)c23)cc1 [Example 87] ?
Reply text: 63

---

Kindly state Remaining (%) for each of the entries shown.
# experiment summary: Evaluation of stability in liver microsome
# run conditions: mouse liver microsome 0.25 mg/mL, test compound 1 μM, 37° C., 30 minutes
Field note: include the unit after the figure.

Some compounds with known Remaining (%) results, for comparison:
COCc1ccc(NC(=O)c2c(OC)n(C3(C)CC3)c3ncnc(N)c23)cc1 ... 86%
COCc1ccc(NC(=O)c2c(C#CCC3(O)COC3)n(C3(C)CC3)c3ncnc(N)c23)cc1 ... 74%
COCc1ccc(NC(=O)c2c(C#Cc3cnn(C(C)C)c3)n(C3(C)CC3)c3ncnc(N)c23)cc1 ... 79%
COCc1ccc(NC(=O)c2c(C#Cc3cnc4cccnn34)n(C3(C)CC3)c3ncnc(N)c23)cc1 ... 65%
COCc1ccc(NC(=O)c2c(C(C)=O)n(C3(C)CC3)c3ncnc(N)c23)cc1 ... 89%

For every record below, what is its Remaining (%)?
1. COCc1ccc(NC(=O)c2c(C#Cc3cn(C)nc3C)n(C3(C)CC3)c3ncnc(N)c23)cc1
2. COCc1ccc(NC(=O)c2c(C#Cc3ccc(OC)cc3)n(C3(C)CC3)c3ncnc(N)c23)cc1
3. COCc1ccc(NC(=O)c2cn(C(C)(C)C)c3ncnc(N)c23)cc1F
4. COCc1ccc(NC(=O)c2c(C#CC(O)C3CC3)n(C3(C)CC3)c3ncnc(N)c23)cc1 (stereo not shown)
5. COCc1ccc(NC(=O)c2c(C#CC3(O)CCCC3)n(C3(C)CC3)c3ncnc(N)c23)cc1

Reply text:
["62%", "90%", "54%", "52%", "55%"]

I need Remaining (%) for every entry listed below, if you could help.
1. CCn1nccc1C#Cc1c(C(=O)Nc2ccc(COC)cc2)c2c(N)ncnc2n1C1(C)CC1
2. COCc1ccc(NC(=O)c2c(C#Cc3c(C)noc3C)n(C3(C)CC3)c3ncnc(N)c23)cc1
3. CCC(O)CC#Cc1c(C(=O)Nc2ccc(COC)cc2)c2c(N)ncnc2n1C1(C)CC1 (stereo not shown)
4. COCc1ccc(NC(=O)c2c(-c3ccc(F)nc3)n(C3(C)CC3)c3ncnc(N)c23)cc1
5. CCOc1c(C(=O)Nc2ccc(COC)cc2)c2c(N)ncnc2n1C1(C)CC1
6. COCc1ccc(NC(=O)c2c(C#Cc3cnn(C)c3)n(C3(C)CC3)c3ncnc(N)c23)cc1

Reply text:
["55%", "58%", "59%", "58%", "70%", "67%"]

---

For each of the molecules below, state its Remaining (%).
# experiment summary: Evaluation of stability in liver microsome
# run conditions: mouse liver microsome 0.25 mg/mL, test compound 1 μM, 37° C., 30 minutes
Give bare numbers, in %.

For orientation, consider the following solved cases.
COCc1ccc(NC(=O)c2c(C#Cc3csc(C)n3)n(C3(C)CC3)c3ncnc(N)c23)cc1 [Example 126] ... 69
COCc1ccc(NC(=O)c2c(C#Cc3cncs3)n(C3(C)CC3)c3ncnc(N)c23)cc1 [Example 193] ... 51
COCc1ccc(NC(=O)c2c(C#CC(C)(C)N)n(C3(C)CC3)c3ncnc(N)c23)cc1 [Example 134] ... 79
COCc1ccc(NC(=O)c2c(C#CCN3CCCCC3)n(C3(C)CC3)c3ncnc(N)c23)cc1 [Example 105] ... 52
COCc1ccc(NC(=O)c2c(OCC3CCCC3)n(C3(C)CC3)c3ncnc(N)c23)cc1 [Example 140] ... 52
C=C(C)c1c(C(=O)Nc2ccc(COC)cc2)c2c(N)ncnc2n1C1(C)CC1 [Example 149] ... 62

Batch: Remaining (%) for all items listed.
1. COCCN(C)CC#Cc1c(C(=O)Nc2ccc(COC)cc2)c2c(N)ncnc2n1C1(C)CC1 [Example 197]
2. COCc1ccc(NC(=O)c2c(OCC(C)OC)n(C3(C)CC3)c3ncnc(N)c23)cc1 (stereo not shown) [Example 100]
3. COCc1ccc(NC(=O)c2c(C#Cc3cnn(C)c3C)n(C3(C)CC3)c3ncnc(N)c23)cc1 [Example 182]
4. COCc1ccc(NC(=O)c2c(C#CCC3(O)CCC3)n(C3(C)CC3)c3ncnc(N)c23)cc1 [Example 103]

Reply text:
1. 52
2. 76
3. 61
4. 60

For every item below, please supply its Remaining (%).
1. COCc1ccc(NC(=O)c2c(C#Cc3cnc4[nH]ccc4c3)n(C3(C)CC3)c3ncnc(N)c23)cc1 [Example 128]
2. COCc1ccc(NC(=O)c2c(/C=C/CO)n(C3(C)CC3)c3ncnc(N)c23)cc1 [Example 109]
3. COCc1ccc(NC(=O)c2c(OCC3CCOCC3)n(C3(C)CC3)c3ncnc(N)c23)cc1 [Example 141]
4. COCc1ccc(NC(=O)c2c(C#Cc3cncnc3)n(C3(C)CC3)c3ncnc(N)c23)cc1 [Example 196]

Reply text:
1. 82
2. 68
3. 68
4. 53

Required: Remaining (%), one value per molecule below.
1. COCc1ccc(NC(=O)c2cn(C3(C4CC4)CC3)c3ncnc(N)c23)cc1 [Example 49]
2. COCc1ccc(NC(=O)c2c(C#Cc3cncc(C#N)c3)n(C3(C)CC3)c3ncnc(N)c23)cc1 [Example 195]

Reply text:
67
70

---

What Remaining (%) was measured for each of the following?
# experiment summary: Evaluation of stability in liver microsome
# run conditions: mouse liver microsome 0.25 mg/mL, test compound 1 μM, 37° C., 30 minutes
Give bare numbers, in %.

Observe how each entry below is paired with its result.
C=Cc1c(C(=O)Nc2ccc(COC)cc2)c2c(N)ncnc2n1C1(C)CC1 ... 79
COCc1ccc(NC(=O)c2c(C#CCN3CCOCC3)n(C3(C)CC3)c3ncnc(N)c23)cc1F ... 77
COCc1ccc(NC(=O)c2c(-c3ccccc3)n(C3(C)CC3)c3ncnc(N)c23)cc1 ... 50

For every item below, please supply its Remaining (%).
1. COCc1ccc(NC(=O)c2c(C#Cc3ccc(Cl)nc3)n(C3(C)CC3)c3ncnc(N)c23)cc1
2. COCc1ccc(NC(=O)c2c(-c3ccc(N4CCN(C)CC4)cc3)n(C3(C)CC3)c3ncnc(N)c23)cc1
3. COCc1ccc(NC(=O)c2c(-c3ccc(O)cc3)n(C3(C)CC3)c3ncnc(N)c23)cc1
4. COCc1ccc(NC(=O)c2c(C#Cc3ccn(C)n3)n(C3(C)CC3)c3ncnc(N)c23)cc1
5. COCc1ccc(NC(=O)c2c(C#Cc3ccn[nH]3)n(C3(C)CC3)c3ncnc(N)c23)cc1

Reply text:
[72, 77, 61, 67, 54]
